B1: FBXO3 (parent)
chain: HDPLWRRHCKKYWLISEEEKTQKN

# Variants of: B1
# experimentDescription: protein stability index of a GFP-peptide fusion (GPS, HEK-293T) (PSI 1-6); higher = more stable;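 also: lentivirally expressed fusions sorted by FACS into six bins by GFP to DsRed ratio, PSI derived from sequencing read proportions per bin multiplied by bin number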
# recordedConditions: c terminus: a fixed tail appended
Use 3 as the dividing line for protein stability index, with the line itself on the 1 side and lower values as -1.

Reference set (4 entries):
mutantName	categoryLabel
L14C	1
H8V	-1
Q22F	-1
I15Y	1

# next variant below
// inclusive: protein stability index at least 3? input: "K10M"
-1
